test: growth modulation of vineyard yeast isolate – strain RM11-1a, OD600, basal, 24 h, primary screen (AID 1177);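 note: cultures grown under basal conditions with no added stressor; test concentration not given here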; details: S. cerevisiae RM11-1a growth, OD600, 24 h; higher = more signal, called active from +8 up or from −8 down
Overview of reported z-score across a group of compounds:
Give the value as a plain number.

Examples from the recorded data:
COCC(=C=CC[C@@H](O)c1ccccc1OCCO)C[C@@H](O)COCc1ccccc1: -2.04
CN1C(=O)C2C=CC(C(O)C3CCCCC3)N(N(c3ccccc3)c3ccccc3)C2C1=O (centres undefined): 0.0139
O=C1C[C@@](C(=O)O)(c2ccc([N+](=O)[O-])cc2)[C@@H](c2ccc(CO)cc2)N1CC12CC3CC(CC(C3)C1)C2: 1.08

Proceed to the following item.
Read the entry C=C(COC)C(=O)CC[C@H](OC(=O)c1ccccc1-c1ccccc1C(=O)O)c1ccc(OCCO)cc1 and write its reported z-score. -0.386

* * *

assay: probe aCHRDL2 binding to arrayed compounds – biochemical, biotinylated probe, 635/667 nm fluorescence, primary screen (AID 1100); conditions: small-molecule microarray, higher = more signal
quantity.kind: composite z-score
Please state the value as a number alone, without comment.

COc1ccccc1CN1C(=O)c2ccccc2[C@@H](C(=O)NCC(C)C)[C@@H]1c1ccc(CO)cc1: 0.705
COCCOC(=O)N1C(=O)[C@@]2(c3cc(C#CCCO)ccc31)[C@H](C(=O)NC[C@H](O)c1ccccc1)[C@H]1C(=O)O[C@H](c3ccccc3)[C@H](c3ccccc3)N1[C@@H]2c1ccccc1OCCO: 0.426
CC(=O)NCCCC[C@@H]1NC(=O)[C@@H]2C[C@H](C(=O)NCCCC[N+](C)(C)C)[C@H](c3cccc(OCCO)c3)N2C1=O: 0.275
[N-]=[N+]=NCc1ccccc1C[C@]1(C(=O)NCCN2CCOCC2)N=C(c2ccc(OCCCO)cc2)O[C@H]1c1ccccc1: 0.826

Tell me composite z-score reported for COCCOC(=O)N1C(=O)[C@@]2(c3cc(C#CC4(O)CCCCCC4)ccc31)[C@H](C(=O)N1CCc3cc(OC)c(OC)cc3C1)[C@H]1C(=O)O[C@H](c3ccccc3)[C@H](c3ccccc3)N1[C@@H]2c1ccccc1OCCO 0.173

Kindly indicate its recorded composite z-score. Item: CCN(CC)c1ccc(N2CC=CC34O[C@@H]5/C=C\CCCOC(=O)C5[C@H]3C(=O)N(CCCCCCO)[C@@H]4C2=O)cc1 (some centres not stated) 0.733

Identify measured composite z-score corresponding to CC(C)CNC(=O)[C@@]1(C)c2ccccc2C(=O)N(Cc2ccccc2)[C@H]1c1ccc(CO)cc1 1.19

* * *

system: PRMT1 (protein arginine N-methyltransferase 1); test: small molecules binding arginine methyltransferase PRMT1 – biochemical, small-molecule microarray, 635 nm fluorescence, primary screen (AID 1088); conditions: higher = more signal;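 note: binding of Prmt1 protein to compounds spotted on small-molecule microarray slides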
Entry flag: T if composite z-score reaches 0.7; F if it does not.

# count of solved cases: 8
O=C(CS)NCCCCCNC(=O)[C@@H]1C[C@@H]2C(=O)N3CCC[C@H]3C(=O)N2[C@@H]1c1ccc(O)cc1: T
Cc1ccc(S[C@]2(C(=O)O)CC(=O)N(C3CCCCC3)[C@@H]2c2ccc(CO)cc2)cc1: T
Cc1ccc(S[C@]2(C(=O)NCC(C)C)CC(=O)N(C3CCCCC3)[C@@H]2c2ccc(CO)cc2I)cc1: T
CCCCC(=C=CC[C@H](O)c1cccc(OCCO)c1)C[C@H](O)COCc1ccccc1: F
Cc1ccc(N2C(=O)c3ccccc3[C@](C)(C(=O)NC(C)C)[C@@H]2c2ccc(CO)cc2)nc1: F
Cc1ccc(C(C)CC(O)C2C=CC3C(=O)N(Cc4ccccc4)C(=O)C3N2n2cnnc2)o1 (stereo not given): T
[N-]=[N+]=NCc1ccccc1[C@H]1OC(c2ccc(OCCCO)cc2)=N[C@@]1(Cc1ccccc1)C(N)=O: T
C=C[C@@H](O)[C@H]1CC(c2ccccc2)=NO1: F

Does composite z-score meet or surpass 0.7 for CC(C)CNC(=O)[C@@]1(c2ccc([N+](=O)[O-])cc2)CC(=O)N(C(C)C)[C@@H]1c1ccc(CO)cc1 ? T

API: above_or_equal(metric=composite z-score, cutoff=0.7) for item COCCOC(=O)N1C(=O)[C@@]2(c3cc(C#CC4(O)CCCCCC4)ccc31)[C@H](C(=O)N1CCc3cc(OC)c(OC)cc3C1)[C@H]1C(=O)O[C@H](c3ccccc3)[C@H](c3ccccc3)N1[C@@H]2c1ccccc1OCCO T

For this molecule, is measured composite z-score 0.7 or higher? O=[N+]([O-])c1ccc(C[n+]2ccc(-c3ccc(CO)cc3)cc2)o1 T

Tell me whether composite z-score is at least 0.7 here: COc1ccc(C#Cc2ccc3c(c2)[C@]2(C(=O)N3)[C@H](c3ccc(OCCO)cc3)N3[C@H](c4ccccc4)[C@H](c4ccccc4)OC(=O)[C@H]3[C@@H]2C(=O)N2CCN(c3ncccn3)CC2)cc1 F

Could you tell me if the measured composite z-score of O=C1NC(=O)C2C1C=CC(C(O)c1ccc(-c3ccccc3)s1)N2Nc1ccccn1 (stereo not given) reaches 0.7 or more? F

State whether the measured composite z-score reaches 0.7, counting equality as reaching it, for CN1C(=O)C2C=CC(C(O)C3CCCCC3)N(N(c3ccccc3)c3ccccc3)C2C1=O (stereo not given) F

Hi, just wondering whether O=C1O[C@H](c2ccccc2)[C@H](c2ccccc2)N2[C@H]1[C@@H](C(=O)N1CCN(c3ncccn3)CC1)[C@]1(C(=O)Nc3ccc(C#CCCO)cc31)[C@H]2c1ccccc1OCCO shows composite z-score of 0.7 or higher. T

Confirm if composite z-score reported for the molecule CC(C)c1ccc(NN2C(C(O)c3cccs3)C=CC3C(=O)N(c4ccccc4)C(=O)C32)cc1 (stereo not given) is 0.7 or above. T

Is reported composite z-score greater than or equal to 0.7 here: [N-]=[N+]=NCc1ccccc1[C@H]1OC(c2ccc(OCCCO)cc2)=N[C@@]1(Cc1ccccc1N=[N+]=[N-])C(=O)N1CCCCC1 T

Decide: is the reported value of composite z-score for Cc1cc(C)c(C(O)C2C=CC3C(=O)N(c4ccccc4)C(=O)C3N2Nc2ccc([N+](=O)[O-])cc2)c(C)c1 (stereo not given) equal to or greater than 0.7? T

Decide: composite z-score of O=C1C2C=CC(C(O)c3cccc4ccccc34)N(Nc3ccccc3)C2C(=O)N1c1ccccc1 (stereo not given) >= 0.7? T

Does COC(=O)[C@@]1(Cc2ccc(OC)cc2)[C@H]2c3cc(C(=O)N(C)C)n(Cc4cc(F)c(F)c(F)c4)c3C[C@H]2CN1C(=O)c1ccccc1 have a reported composite z-score of at least 0.7? F

Evaluate C=CCC(OC(C)=O)[C@@H]1[C@@H](N(Cc2ccc(-c3ccccc3)cc2)C(=O)Cc2ccc(OC)cc2)c2cc(OCCCO)ccc2N1C(=O)c1ccc(-c2ccccc2)cc1 (stereo not given in full) : composite z-score at minimum 0.7? F

Determine whether this molecule has composite z-score no lower than 0.7: COCCCNC(=O)[C@@H]1c2ccccc2C(=O)N(Cc2cc(F)cc(C(F)(F)F)c2)[C@H]1c1ccc(CO)cc1 F

Determine whether this molecule has composite z-score no lower than 0.7: COC(=O)[C@@]1(Cc2ccc(OC)cc2)[C@H]2c3cc(C(=O)N4CCCC4)n(CCF)c3C[C@H]2CN1C(=O)c1ccccc1 F

Assess whether reported composite z-score for COCC(=C=CC[C@@H](O)c1ccccc1OCCO)C[C@@H](O)COCc1ccccc1 sits at 0.7 or higher. T
